Origin of the recorded values: patent US5019575A

- System: troponin
- Method Description: Retention time in troponin high-performance liquid affinity chromatography (HPLAC) column, calcium dependent binding to troponin
- Test Settings: mobile phase with 30 mM calcium; flow rate 1 ml/min
Measured Metric: Retention time in troponin-HPLAC column, Ca^2+ solution (min)
Give bare numbers, in min.

Examples with answers:
{"Compound": "Cc1[nH]c(=O)c(C#N)cc1-c1ccncc1 [milrinone, reference compound]", "System": "troponin", "Meas Value": 1.2}
{"Compound": "CC1CC(=O)NN=C1/C=C/c1ccc(NN=C(C#N)C#N)cc1 (centres unmarked) [Example 33]", "System": "troponin", "Meas Value": 6.6}
{"Compound": "CC1NC(=O)NN=C1c1ccc(NN=C(C#N)C#N)cc1 (centres unmarked) [Example 43]", "System": "troponin", "Meas Value": 2.4}
{"Compound": "CC(=O)C(=NNc1ccc(C2=NNC(=O)CC2)cc1)C(C)=O [Example 7]", "System": "troponin", "Meas Value": 5.4}
{"Compound": "COc1ccc(-c2nc3ccc(C4=NNC(=O)CC4C)cc3[nH]2)cc1 (centres unmarked) [pimobendan, reference compound]", "System": "troponin", "Meas Value": 70.4}
{"Compound": "O=C1CCC(c2ccc(Nc3ccncc3)cc2)=NN1 [MCI-154, reference compound]", "System": "troponin", "Meas Value": 6.5}
{"Compound": "CC1SC(=O)NN=C1c1ccc(NN=C(C#N)C#N)cc1 (centres unmarked) [Example 41]", "System": "troponin", "Meas Value": 10.5}
{"Compound": "N#CC(C#N)=NNc1ccc(C=CC2=NNC(=O)SC2)cc1 [Example 49]", "System": "troponin", "Meas Value": 18.4}

Batch: Retention time in troponin-HPLAC column, Ca^2+ solution for all items listed.
1. CC1(C)C(=O)Nc2cc3[nH]c(-c4ccncc4)nc3cc21 [adibendan, reference compound]
2. N#CC(C#N)=NNc1ccc(C2=NNC(=O)CC2)cc1 [Example 1]
3. N#CC(C#N)=NNc1ccc(C2=NNC(=O)NC2)cc1 [Example 45]

[14.8, 3.5, 2.1]
